# Protocol Summary: qHTS RealTime-Glo MT Cell Viability Assay in HepG2 cells - 24 hour (AID 1224867); further: nearly all actives have a fitted effect of over 50% in size
# Cond: RealTime-Glo luminescence; series mostly up to 76.8 µM
Records with an inconclusive call do not appear. The source made the active and inactive calls. The call rests on the fitted dose curve; in most records, active means well fitted cell-killing curve with a large enough effect in the repeat runs; inconclusive means weak or mixed curves; inactive means flat fitted curve, though single readings scatter.
Outcomes: active, inactive

{"Molecule": "Cc1c2ccccc2c(C)c2c1ccc1ccccc12", "Cat": "inactive"}
{"Molecule": "CCCCC(CC)COC(=O)CCCCC(=O)OCc1ccccc1 (stereo not drawn)", "Cat": "inactive"}
{"Molecule": "C#CC1(O)CC[C@H]2[C@@H]3CCC4=CCCC[C@@H]4[C@H]3CC[C@@]21C (stereo partly drawn)", "Cat": "active"}
{"Molecule": "Cc1cc(C)c(/C=C2\\C(=O)Nc3ccccc32)[nH]1", "Cat": "inactive"}
{"Molecule": "CC(N=C(NC#N)Nc1ccncc1)C(C)(C)C (stereo not drawn)", "Cat": "inactive"}
{"Molecule": "Cc1c(C)c2c(c(C)c1O)CC[C@@](C)(CCC[C@H](C)CCC[C@H](C)CCCC(C)C)O2", "Cat": "inactive"}
{"Molecule": "Oc1cc(Cl)cc(Cl)c1Cl", "Cat": "inactive"}
{"Molecule": "CCC(CC)(CC(=O)Nc1cccc(/C=C/c2nc(C3CCC3)cs2)c1)C(=O)O", "Cat": "inactive"}
{"Molecule": "COc1c(C)c2c(c(O)c1C/C=C(\\C)CCC(=O)OCCN1CCOCC1)C(=O)OC2", "Cat": "inactive"}
{"Molecule": "O=C(O)c1ccc2cc(C(=O)O)ccc2c1", "Cat": "inactive"}
{"Molecule": "OC[C@@H](O)[C@@H](O)CO", "Cat": "inactive"}
{"Molecule": "CC(C)(C)c1ccc(C(O)CCCN2CCC(C(O)(c3ccccc3)c3ccccc3)CC2)cc1 (stereo not drawn)", "Cat": "active"}
{"Molecule": "CCCCCC(C)OC(=O)COc1ccc(Cl)c2cccnc12 (stereo not drawn)", "Cat": "inactive"}
{"Molecule": "CC(CCc1ccccc1)NCC(O)c1ccc(O)c(C(N)=O)c1 (stereo not drawn)", "Cat": "inactive"}
{"Molecule": "O=c1c(O)c(-c2ccc(O)cc2O)oc2cc(O)cc(O)c12", "Cat": "inactive"}
{"Molecule": "Fc1ccc(C(c2ccc(F)cc2)N2CCNCC2)cc1", "Cat": "inactive"}
{"Molecule": "CCCCCCC1CCCC(=O)O1 (stereo not drawn)", "Cat": "inactive"}
{"Molecule": "COc1cc(/C=C/c2ccccc2)oc(=O)c1", "Cat": "inactive"}
{"Molecule": "CN(C)C(=O)COC(=O)Cc1ccc(OC(=O)c2ccc(N=C(N)N)cc2)cc1", "Cat": "inactive"}
{"Molecule": "OC/C=C/CO", "Cat": "inactive"}
{"Molecule": "CCCC(=O)OCOC(=O)C1=C(C)NC(C)=C(C(=O)OC)C1c1cccc(Cl)c1Cl (stereo not drawn)", "Cat": "inactive"}
{"Molecule": "CCCCOC(=O)CC", "Cat": "inactive"}
{"Molecule": "COc1ccc(NC(=O)CC(C)=O)cc1", "Cat": "inactive"}
{"Molecule": "CC1(C)CCC[C@]2(C)[C@H]3CC(=O)O[C@]3(C)CC[C@@H]12", "Cat": "inactive"}
{"Molecule": "CCCNCCC", "Cat": "inactive"}
{"Molecule": "CN(C)CCN1CCN(c2cccc(Cl)c2)C1=O", "Cat": "inactive"}
{"Molecule": "S=C([S-])NCCNC(=S)[S-].S=C([S-])NCCNC(=S)[S-].[Mn+2].[Zn+2]", "Cat": "inactive"}
{"Molecule": "CC(C)CCCCCOC(=O)CCS", "Cat": "inactive"}
{"Molecule": "O=C(O)c1cc(N=Nc2ccc([N+](=O)[O-])cc2)ccc1O", "Cat": "inactive"}
{"Molecule": "CCC(CC)C(C)CCOC(C)=O (stereo not drawn)", "Cat": "inactive"}
{"Molecule": "CN(C)Cc1cc(C(C)(C)C)c(O)c(C(C)(C)C)c1", "Cat": "inactive"}
{"Molecule": "O=c1[nH]c2ccccc2n1CCCN1CCN(C(c2ccccc2)c2ccccc2)CC1", "Cat": "active"}
{"Molecule": "CCC(=O)OC(=O)CC", "Cat": "inactive"}
{"Molecule": "Nc1nc(N)nc(-c2cc(Cl)ccc2Cl)n1", "Cat": "inactive"}
{"Molecule": "Clc1sc(Cl)c(Cl)c1Cl", "Cat": "inactive"}
{"Molecule": "C=CC(=O)OCCOC(=O)C=C", "Cat": "inactive"}
{"Molecule": "Cc1c(C)c2c(c(C)c1OC(=O)c1cccnc1)CC[C@@](C)(CCC[C@H](C)CCC[C@H](C)CCCC(C)C)O2", "Cat": "inactive"}
{"Molecule": "O=C(O)c1cccc(C(F)(F)F)c1", "Cat": "inactive"}
{"Molecule": "Clc1nnc(Cl)c2ccccc12", "Cat": "inactive"}
{"Molecule": "CN1CCN2c3ccccc3Cc3ccccc3C2C1 (stereo not drawn)", "Cat": "inactive"}
{"Molecule": "Nc1ccc(Oc2ccc(Cl)cc2)cc1", "Cat": "inactive"}
{"Molecule": "CCCCCC/C=C\\CCCCCCCC(=O)O", "Cat": "inactive"}
{"Molecule": "OC1CCC(C2CCCCC2)CC1 (stereo not drawn)", "Cat": "inactive"}
{"Molecule": "O=C1C(c2[nH]c3ccc(S(=O)(=O)O)cc3c2O)=Nc2ccc(S(=O)(=O)O)cc21", "Cat": "inactive"}
{"Molecule": "CCOC(=O)c1ccc(C2CCC(NC[C@H](O)COc3ccc(O)c(NS(C)(=O)=O)c3)CC2)cc1 (stereo partly drawn)", "Cat": "active"}
{"Molecule": "CN1CCCCC1CCN1c2ccccc2Sc2ccc(S(C)=O)cc21 (stereo not drawn)", "Cat": "inactive"}
{"Molecule": "CN1CCC[C@@H]1CCO[C@](C)(c1ccccc1)c1ccc(Cl)cc1", "Cat": "active"}
{"Molecule": "Cc1ccc(C)cc1", "Cat": "inactive"}
